- Test system: corn (GA-tolerant)
- Protocol Details: Greenhouse trial: crop plant compatibility
- Type: in vivo
- Measurement Setup: Table 4; post-emergence, 1-2-leaf stage, scoring 14 days after treatment; g of ai/ha: A1.1 100; B1.1 2.5 alone, 5 in combinations; C1 2.5; C2 1.25; C10 250; C4 50; C5 1; C6 2
For each record, write down the corresponding Damage to crop plants (%) corn (GA-tolerant) (≦15-20% acceptable).
Give just the numeric value; % need not be written.

Kindly note the recorded Damage to crop plants (%) corn (GA-tolerant) (≦15-20% acceptable) for CP(=O)(O)CCC(N)C(=O)O (stereo not shown) [(A1.1) GA, glufosinate-ammonium] , which is 0

Kindly note the recorded Damage to crop plants (%) corn (GA-tolerant) (≦15-20% acceptable) for C#CCN1C(=O)COc2cc(F)c(N3C(=O)C4=C(CCCC4)C3=O)cc21 [(C5) flumioxazin, flumioxazin] , which is 15

Kindly note the recorded Damage to crop plants (%) corn (GA-tolerant) (≦15-20% acceptable) for CCNc1nc(Cl)nc(NC(C)C)n1 [(C10) atrazin, atrazine] , which is 0

Kindly note the recorded Damage to crop plants (%) corn (GA-tolerant) (≦15-20% acceptable) for N#Cc1cc(Br)c(O)c(Br)c1 [(C4) bromoxynil, bromoxynil] , which is 0
